Molecular target: UCHL1, P09936
Sequence (P09936 whole entry, looked up, the tested form may be a part): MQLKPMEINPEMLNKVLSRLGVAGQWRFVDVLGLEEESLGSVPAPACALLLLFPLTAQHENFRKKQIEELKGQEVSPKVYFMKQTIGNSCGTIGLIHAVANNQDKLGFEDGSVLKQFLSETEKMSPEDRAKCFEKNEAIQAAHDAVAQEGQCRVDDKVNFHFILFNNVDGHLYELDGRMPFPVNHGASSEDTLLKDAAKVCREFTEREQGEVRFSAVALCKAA
Assay: median log2 fold change of GCK-ALFA target abundance (FLAG IP / Myc IP barcode read proportion) (log2 ratio); each designed protein is fused to an ALFA-tag nanobody in HEK293 cells to bring the named protein to FLAG-tagged glucokinase (GCK); Myc marks an untargeted standard; higher = target protein stabilised (more abundant)
Settings: target protein: 3xFLAG-MCP-GCK-ALFA reporter; HEK293 landing pad (RPLP)
READOUT: median log2 fold change
Could you keep your reply to the number by itself?

median log2 fold change for uchl1_2_7534 (protein) KTVFVGVKVTVTVTDPATGKTTTTTRTFIGTADSVDALADAVTDYILRVKADSKADVAAAVTVYSTDKAVVDRAVAALNARVPELAAAGVTVTVTGTVVK is 0.287

The reported median log2 fold change of the binder uchl1_2_7535 (protein) KTKFVGVLVTLTATDAETGEVKTSRRTFIGTEDSVEALADEVKDYILDYKKDSGKAVKADIKIYSTDEEVVKKLEALLKEKEPELKAAGIEVNITGEVVK was -0.112

Noted for uchl1_2_7520 (protein) KARFVGVLVDMTSTDPETGKTYRSRRNYIGTESAIPAMMAEVKEDVLNFQKNVGLPVKVDLHIVADTQEALDAAKAEAEKMAAELAKEGATVTISGEVAE : its median log2 fold change reads -1.27

get_value(item= uchl1_2_7541 (protein) KTKFIGVLVTLTSYDAATGRTYRARRTLIGTESGIEAMAAEVAELVRTFHDATGQPVAVDVRIVSSDEAVAEALEAALKAAEAALKAEGVDVTLTITKDV , readout=median log2 fold change) returns -0.304

uchl1_89_7589 (protein) AAAREAAARARLEAVLAKTRAELERLLARLGAPDPEMVAALEALFDAARRALADPETAEAALAETEAAARRLVELAPEEVRASVRLAVGRLVIALEGYRA has a reported median log2 fold change of 0.16

Noted for uchl1_122_7451 (protein) SETVEVVGRRRDIELIAEAIKEVFEKFGVKVEVEIEELSPTTAKLTVTITVPPISDEELEALLAALEEAMRRLVEEEGVPRATAGLAYSRTARAVKRAAA : its median log2 fold change reads -0.77

Documented median log2 fold change of uchl1_2_7533 (protein) KTVFVGVRVTITSRNPETGEVRRAVRTFIFTESSLEALTEEIRELALAFKADHGGATTVRIEAVATREEVAERLRELLERLAEELAAEGIEVEIEVTVVK : -0.457

// field: median log2 fold change; key: uchl1_143_7487 (protein) AVEVIELSPEEVAAWLALPDEEALAALEAVLEAAVDRGVDTLVRIPAPEDANDRLRLNTLVRRAARRVAAAHADRIDSVTISQEKDPNGPPRLVVSIRVK ; value = 0.226

Lab note: measured median log2 fold change of uchl1_2_7547 (protein) KTEFVGVLVTITSVNPETGETFVARRTLIGTASSIEAMAKEIKELALAFKADTKGDTTVDVEVVVSSKEVAEKAKKALEELKKELEAEGIKFNYKITVVE was -0.0935
